# reported GI50; entries follow
Tested on: SK-OV-3 ovarian
TEST: NCI tumour cell line growth inhibition, 48 h

COMPOUND: COc1ccc(CNc2c3ccccc3nc3ccccc23)cc1F
GI50: 3.66 µM
//
COMPOUND: COc1cc(/C=C2\CCCCC3=C2N=C2SC(C)=CN2C3c2cc(OC)c(OC)c(OC)c2)cc(OC)c1OC (centres undefined)
GI50: 6.23 µM
//
COMPOUND: CCOC(=O)Nc1c(C)nc2ccccn12
GI50: > 100 µM
//
COMPOUND: C=C(C)C(C1C=C(CCC(C=O)=C(C)C)C(=O)O1)C1(OC)C=C(C)C(=O)O1 (centres undefined)
GI50: > 100 µM
//
COMPOUND: Cc1nc2c(Br)cc(Br)cc2c(=O)n1-c1nnc(-c2cccc(Cl)c2Cl)c(N)n1
GI50: 24.9 µM
//
COMPOUND: COc1cccc2c1O/C(=C\c1ccc([N+](=O)[O-])s1)C2=O
GI50: > 83.9 µM
//
COMPOUND: CO[C@@H]1CC[C@]2(C)OC[C@H](C)[C@@H]3C[C@@H](C)[C@@H](OC(C)=O)[C@@H]4[C@H]3[C@@H]2O[C@H]4C[C@@]1(C)O
GI50: > 100 µM
//
COMPOUND: O=C(Nc1nc(-c2c[nH]c3ccccc23)cs1)c1n[nH]c(=O)c2ccccc12
GI50: 12.6 µM
//
COMPOUND: COc1ccc(-c2cc(=O)oc3c4c(ccc23)OCN(Cc2ccc(F)cc2)C4)cc1
GI50: 19.1 µM

---

Test system: EKVX NSCLC
TEST: NCI tumour cell line growth inhibition, 48 h

MOLECULE: O=C(CC(=O)Nc1ccccc1)NNC(Sc1ccccc1)c1cc(N=Nc2ccc(Br)cc2)ccc1O (centres undefined)
TGI: > 10 µM

MOLECULE: CC12c3c4ccc(C=O)c3Oc3ccc(C=O)c(c31)Oc1ccc(C=O)c(c12)O4
TGI: > 25 µM

MOLECULE: COc1ccc(/C=N/NC(=O)c2ccc(O)c(CN(C)C)c2)cc1
TGI: > 100 µM

MOLECULE: COc1c(C)c(OCC=C(C)C)cc(CO)c1CO
TGI: > 100 µM

MOLECULE: CCCCCCCCCCCC[N+]12CC[N+](CCN)(CC1)CC2
TGI: > 100 µM

MOLECULE: C[N+](C)(C)CC(=O)N/N=C(/Cc1cc(=O)oc2cc(O)ccc12)C(=O)Nc1ccc(Cl)cc1
TGI: > 100 µM

MOLECULE: CC(C)Oc1cccc(N2C(=NCc3c[nH]c4ccccc34)Nc3ccncc3S2(=O)=O)c1
TGI: 79 µM

MOLECULE: O=C(Nc1nc(-c2c[nH]c3ccccc23)cs1)c1n[nH]c(=O)c2ccccc12
TGI: > 100 µM

MOLECULE: c1ccc(C(C(=Nc2ccc(Cc3ccc(N=C(C(c4ccccc4)c4ccccc4)N4CC4)cc3)cc2)N2CC2)c2ccccc2)cc1
TGI: 25.9 µM

---

# reported TGI; entries follow
Tested on: UACC-257 melanoma
TEST: NCI tumour cell line growth inhibition, 48 h

COMPOUND: Cc1ccc2c(c1)c1ccc3c(c1n2C)C(=O)C=CC3=O
TGI: 7.9 µM
//
COMPOUND: O[C@H]1[C@H](O)[C@@H](O)CN2CC[C@H](O)[C@H]12
TGI: > 100 µM
//
COMPOUND: O=C(c1ccc([N+](=O)[O-])cc1[N+](=O)[O-])N(/N=C/C=C/c1ccccc1)c1nnc(-c2ccccc2)c(-c2ccccc2)n1
TGI: > 100 µM
//
COMPOUND: O=c1[nH]c(-c2cccc(F)c2)cc2cc(F)ccc12
TGI: > 100 µM
//
COMPOUND: O=C1c2cccc3cccc(c23)C(=O)N1CCCNCCCCNCCCNCCCN1C(=O)c2cccc3cccc(c23)C1=O
TGI: 3.06 µM
//
COMPOUND: COc1ccc(-c2nc3ccccc3c(=S)n2OC(C)=O)cc1
TGI: > 25 µM
//
COMPOUND: CCC(C)(C)n1c(C)nc2c1C(=O)c1ccccc1C2=O
TGI: 84.4 µM
//
COMPOUND: CCCCCCCCc1cc2c(O)c(c1)Cc1cc(CCCCCCCC)cc(c1O)Cc1cc(CCCCCCCC)cc(c1O)Cc1cc(CCCCCCCC)cc(c1O)Cc1cc(CCCCCCCC)cc(c1O)Cc1cc(CCCCCCCC)cc(c1O)C2
TGI: > 100 µM
//
COMPOUND: Cc1cc(C)nc(NS(=O)(=O)c2ccc(Nc3c4ccccc4nc4c(C(=O)N5CCN(CCO)CC5)cccc34)cc2)n1
TGI: > 100 µM
//
COMPOUND: Cc1cc(C(=O)CSC(=S)SC(C)(C)C)ccc1Cl
TGI: 34.4 µM
//
COMPOUND: CN1Cc2c(nc(-c3ccccc3)c[n+]2[O-])N(C)C1
TGI: > 100 µM
//
COMPOUND: COc1cc(O)c2c(=O)c(OC)c(-c3ccc(OC)c(O)c3)oc2c1
TGI: > 100 µM
//
COMPOUND: CC(C(=O)COCc1ccccc1)P1(=O)OC(C)(C)CN1C(C)(C)C (stereo not given)
TGI: > 100 µM
//
COMPOUND: COc1nc(=O)n(C2C=CC(=O)O2)cc1F (stereo not given)
TGI: 31.4 µM
//
COMPOUND: COC(=N)c1csc(C2OC(CO)C(O)C2O)n1 (stereo not given)
TGI: > 100 µM
//
COMPOUND: O=C1C=C(Nc2ccc(Cl)cc2C(=O)c2ccccc2)c2ccccc2C1=O
TGI: > 100 µM
//
COMPOUND: CNc1[nH]c(=S)nc2sc3c(c12)CCCC3
TGI: > 75 µM
//
COMPOUND: Cc1cc2c(cc1C)[n+](=O)cc(C(=O)C/C(=N/NC(=S)NN)C(=O)Nc1cccc(C(F)(F)F)c1)n2[O-]
TGI: > 100 µM
//
COMPOUND: CCN(CCNS(C)(=O)=O)c1ccc(N)c(C)c1
TGI: 27.1 µM
//
COMPOUND: Cc1ccc(/C=C2/N=C(N/N=C\C(O)C(O)C(O)C(O)CO)NC2=O)cc1 (stereo not given)
TGI: > 100 µM
